- EXPERIMENTAL_TARGET: NS3h 1b[con1]
- ASSAY_TEXT: NS3h unwinding inhibitors, genotype 1b and 2a – biochemical, real-time fluorescence, strains con1 and JFH1, set 3, selectivity assay for HCV NS3 helicase inhibitor project, late-stage follow-up (AID 602275)
- CONDITION_INFO: Recombinant NS3h
ENDPOINT_NAME: IC50

{"MOLECULE": "Cc1ccc2nc(-c3ccc(NC(=O)c4ccc(NC(=O)c5ccc(C(F)(F)F)cc5)cc4)cc3)sc2c1S(=O)(=O)O", "REPORTED_VALUE": "10.4 µM"}
{"MOLECULE": "Cc1ccc2nc(-c3ccc4nc(-c5ccc(NC(=O)c6ccc(N(C)C)cc6)cc5)sc4c3)sc2c1S(=O)(=O)O", "REPORTED_VALUE": "11 µM"}
{"MOLECULE": "Cc1ccc2nc(-c3ccc4nc(-c5ccc(NC(=O)c6ccc(C(C)(C)C)cc6)cc5)sc4c3)sc2c1S(=O)(=O)O", "REPORTED_VALUE": "8.2 µM"}
{"MOLECULE": "Cc1cc(C(O)(c2ccc(Nc3ccccc3)cc2)c2ccc(Nc3ccc(S(=O)(=O)O)cc3)cc2)ccc1N (stereo not given)", "REPORTED_VALUE": "28.6 µM"}
{"MOLECULE": "Cc1ccc2nc(-c3ccc(NC(=O)c4ccc(NC(=S)Nc5ccccc5)cc4)cc3)sc2c1S(=O)(=O)O", "REPORTED_VALUE": "28.8 µM"}
{"MOLECULE": "Cc1cc2sc(-c3ccc4nc(-c5ccc(N)cc5)sc4c3)nc2cc1S(=O)(=O)O", "REPORTED_VALUE": "7 µM"}
{"MOLECULE": "COC(=O)c1ccc(C(=O)Nc2ccc(-c3nc4ccc(-c5nc6ccc(C)c(S(=O)(=O)O)c6s5)cc4s3)cc2)cc1", "REPORTED_VALUE": "9.7 µM"}
{"MOLECULE": "CS(=O)(=O)c1ccc2nc(NC(=O)c3ccc4ncsc4c3)sc2c1", "REPORTED_VALUE": "26.8 µM"}
{"MOLECULE": "Cc1ccc2nc(-c3ccc4nc(-c5ccc(NC(=O)c6cc(F)ccc6C(F)(F)F)cc5)sc4c3)sc2c1S(=O)(=O)O", "REPORTED_VALUE": "19 µM"}
{"MOLECULE": "Cc1ccc(C(=O)Nc2ccc(-c3nc4ccc(-c5nc6ccc(C)c(S(=O)(=O)O)c6s5)cc4s3)cc2)cc1", "REPORTED_VALUE": "3.3 µM"}

###

IC50 reference
- EXPERIMENTAL_TARGET: NS3h 2a[JFH1]
- ASSAY_TEXT: NS3h unwinding inhibitors, genotype 1b and 2a – biochemical, real-time fluorescence, strains con1 and JFH1, set 3, selectivity assay for HCV NS3 helicase inhibitor project, late-stage follow-up (AID 602275)
- CONDITION_INFO: Recombinant NS3h
ENDPOINT_NAME: IC50

{"MOL": "Cc1ccc2nc(-c3ccc(NC(=O)c4ccc(NC(=O)Nc5ccccc5)cc4)cc3)sc2c1S(=O)(=O)O", "REPORTED_VALUE": "32.1 µM"}
{"MOL": "Cc1ccc2nc(-c3ccc4nc(-c5ccc(NC(=O)c6cc(C(F)(F)F)ccc6F)cc5)sc4c3)sc2c1S(=O)(=O)O", "REPORTED_VALUE": "6.7 µM"}
{"MOL": "COc1ccc(C(=O)Nc2ccc(-c3nc4ccc(-c5nc6ccc(C)c(S(=O)(=O)O)c6s5)cc4s3)cc2)cc1", "REPORTED_VALUE": "5.4 µM"}
{"MOL": "Cc1ccc2nc(-c3ccc4nc(-c5ccc(NCc6ccccc6)cc5)sc4c3)sc2c1S(=O)(=O)O", "REPORTED_VALUE": "13.5 µM"}
{"MOL": "COC(=O)c1ccc(C(=O)Nc2ccc(-c3nc4ccc(-c5nc6ccc(C)c(S(=O)(=O)O)c6s5)cc4s3)cc2)cc1", "REPORTED_VALUE": "2.4 µM"}
{"MOL": "Cc1ccc2nc(-c3ccc4nc(-c5ccc(NC(=O)c6ccc(N(C)C)cc6)cc5)sc4c3)sc2c1S(=O)(=O)O", "REPORTED_VALUE": "6 µM"}
